Target: Fyn tyrosine kinase (Homo sapiens, UniProt P06241)
Sequence (P06241 whole entry): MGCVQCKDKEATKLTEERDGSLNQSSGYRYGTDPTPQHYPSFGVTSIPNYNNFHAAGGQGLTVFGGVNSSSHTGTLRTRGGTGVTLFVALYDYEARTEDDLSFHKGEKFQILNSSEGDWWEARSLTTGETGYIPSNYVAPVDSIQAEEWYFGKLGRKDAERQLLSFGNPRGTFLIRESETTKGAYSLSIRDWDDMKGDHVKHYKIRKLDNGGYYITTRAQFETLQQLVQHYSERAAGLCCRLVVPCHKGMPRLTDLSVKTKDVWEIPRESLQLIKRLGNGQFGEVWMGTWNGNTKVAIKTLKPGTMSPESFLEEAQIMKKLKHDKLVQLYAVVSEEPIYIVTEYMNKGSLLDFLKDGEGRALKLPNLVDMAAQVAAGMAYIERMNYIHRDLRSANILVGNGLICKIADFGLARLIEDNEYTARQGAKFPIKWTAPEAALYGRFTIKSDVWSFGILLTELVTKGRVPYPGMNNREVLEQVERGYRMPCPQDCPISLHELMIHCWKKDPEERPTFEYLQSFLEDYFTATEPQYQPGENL
reported property: IC50 (nM)

Cc1ccc(NC(=O)c2ccc(CN3CCN(C)CC3)cc2)cc1Nc1nc(-c2cccnc2)cs1 [masitinib] ... 165
